Tested on: spontaneously hypertensive rat (SHR)
Assay Info: Oral hypotensive activity in spontaneously hypertensive rats (SHR)
Type: in vivo
Particulars: 2 hours post dose, Table 5
Assign t whenever Percent change in blood pressure does not fall below -30%; assign f whenever it does.

Examples with answers:
[[record]]
compound = "CCCCOP(=O)(OCCCC)C(Cc1cc(C(C)(C)C)c(O)c(C(C)(C)C)c1)P(=O)(OCC)OCC (stereo not drawn)"
target_of_assay = "spontaneously hypertensive rat (SHR)"
class_assignment = "f"

[[record]]
compound = "CCOP(=O)(OCC)C(Cc1cc(C(C)(C)C)c(O)c(C(C)(C)C)c1)P(=O)(OCC)OCC"
target_of_assay = "spontaneously hypertensive rat (SHR)"
class_assignment = "f"

[[record]]
compound = "COc1ccc([C@@H]2Sc3ccccc3N(CCN(C)C)C(=O)[C@@H]2OC(C)=O)cc1 [Diltiazem, reference compound]"
target_of_assay = "spontaneously hypertensive rat (SHR)"
class_assignment = "f"

[[record]]
compound = "CC(C)OP(=O)(OC(C)C)C(Cc1cc(C(C)(C)C)c(O)c(C(C)(C)C)c1)P(=O)(OC(C)C)OC(C)C"
target_of_assay = "spontaneously hypertensive rat (SHR)"
class_assignment = "f"


We next turn to a different compound, shown below.
Task: Assess whether reported Percent change in blood pressure for CCOP(=O)(OCC)C(Cc1cc(C(C)CC)c(O)c(C(C)CC)c1)P(=O)(OCC)OCC (stereo not drawn) sits at -30% or higher.
Output: t
